biological target: CYP3A (intestinal) (Homo sapiens, UniProt P08684); conditions: microsomes, pH 7.4
Sequence (P08684 2-503): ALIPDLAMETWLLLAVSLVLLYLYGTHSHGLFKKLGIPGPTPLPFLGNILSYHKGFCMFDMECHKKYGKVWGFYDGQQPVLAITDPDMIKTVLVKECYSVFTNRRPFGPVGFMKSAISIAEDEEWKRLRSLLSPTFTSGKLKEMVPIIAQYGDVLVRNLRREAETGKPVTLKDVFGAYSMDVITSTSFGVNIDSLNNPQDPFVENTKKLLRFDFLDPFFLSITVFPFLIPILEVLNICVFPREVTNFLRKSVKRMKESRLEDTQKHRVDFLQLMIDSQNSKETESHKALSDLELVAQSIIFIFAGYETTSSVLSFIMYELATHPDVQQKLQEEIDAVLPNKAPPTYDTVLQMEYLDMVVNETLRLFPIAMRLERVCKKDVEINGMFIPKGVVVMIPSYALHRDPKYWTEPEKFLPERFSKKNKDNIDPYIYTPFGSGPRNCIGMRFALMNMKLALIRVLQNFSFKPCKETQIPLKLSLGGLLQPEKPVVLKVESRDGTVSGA
Quantity Kind: pIC50
Scale note: pIC50 = -log10(concentration in M).

Lab note: need pIC50 for CC1(C)CC[C@]2(C(=O)O)CC[C@]3(C)C(=CC[C@@H]4[C@@]5(C)C[C@@H](O)[C@H](O)C(C)(C)[C@@H]5CC[C@]43C)[C@@H]2C1 [Maslinic acid (2), 2α,3β-dihydroxyolean-12-en-28-oic acid] on CYP3A (intestinal) (Homo sapiens, UniProt P08684), anyone have it? 5.13
